- target: pre-existing anti-scFv903 antibodies in human serum H105 (human)
- experimental-protocol: competition ADA bridging ELISA, 100 mcg/ml competitor

{"binder": "scFv105 (scFv) scFv: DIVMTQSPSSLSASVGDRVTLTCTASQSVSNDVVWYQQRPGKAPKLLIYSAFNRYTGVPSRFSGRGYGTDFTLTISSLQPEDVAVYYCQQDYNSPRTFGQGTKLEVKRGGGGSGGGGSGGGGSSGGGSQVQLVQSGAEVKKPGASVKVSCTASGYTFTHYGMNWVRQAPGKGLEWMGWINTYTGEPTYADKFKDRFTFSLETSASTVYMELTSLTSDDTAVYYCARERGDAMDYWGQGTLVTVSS", "readout-units": "%", "% reduction in OD": 2.4}
{"binder": "scFv 903 (scFv) scFv: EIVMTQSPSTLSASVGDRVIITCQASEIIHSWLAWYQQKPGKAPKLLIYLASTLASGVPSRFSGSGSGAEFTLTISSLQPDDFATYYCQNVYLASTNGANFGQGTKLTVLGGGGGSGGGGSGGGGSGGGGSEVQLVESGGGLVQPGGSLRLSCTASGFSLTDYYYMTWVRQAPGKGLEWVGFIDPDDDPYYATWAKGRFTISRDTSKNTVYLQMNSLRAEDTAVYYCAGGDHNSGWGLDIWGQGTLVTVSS", "readout-units": "%", "% reduction in OD": -97.2}
{"binder": "scFv 961 (scFv) scFv: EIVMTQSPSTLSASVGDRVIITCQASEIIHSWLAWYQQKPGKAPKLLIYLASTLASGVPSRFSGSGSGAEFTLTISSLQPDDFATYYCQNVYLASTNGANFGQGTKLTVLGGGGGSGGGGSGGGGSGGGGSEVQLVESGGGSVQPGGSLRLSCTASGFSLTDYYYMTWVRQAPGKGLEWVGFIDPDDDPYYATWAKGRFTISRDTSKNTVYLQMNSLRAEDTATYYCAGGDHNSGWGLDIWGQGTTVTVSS", "readout-units": "%", "% reduction in OD": 7.4}
